# Tested on: SW1271 complex spheroids with HUVEC/MSC, growth, % test/control
# Method Summary: Anticancer human tumor SW1271 cell line growth inhibition [AhR];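 note: spheroids exposed to agents for 7 days before readout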
# Stated Conditions: second compound 0.316 µM; first compound 0.0316 µM; hits give low values
Would you mind telling me the reported viability, T/C of each entry?
Give bare numbers, in %.

compound="Nc1ccn(C2OC(CO)C(O)C2(F)F)c(=O)n1 (stereo not drawn) + Cc1ccccc1N=Nc1ccc(NC(=O)c2ccnn2C)c(C)c1" readout_name="viability, T/C" display_unit=% recorded_result=54.6
compound="COc1cccc2c1C(=O)c1c(O)c3c(c(O)c1C2=O)CC(O)(C(=O)CO)CC3OC1CC(N)C(O)C(C)O1 (stereo not drawn) + Cc1ccccc1N=Nc1ccc(NC(=O)c2ccnn2C)c(C)c1" readout_name="viability, T/C" display_unit=% recorded_result=52.6

Now for another entry.
Input line: Write down the reported viability, T/C of COc1cc(C2c3cc4c(cc3C(OC3OC5COC(C)OC5C(O)C3O)C3COC(=O)C23)OCO4)cc(OC)c1O (stereo not drawn) + CC(CO)NC(=O)c1cc(-c2ccc(Cl)cc2)nn(-c2cnn(C)c2)c1=O , test system: SW1271 complex spheroids with HUVEC/MSC, growth, % test/control.
Output line: 93.5
